Source listed as paper PMC8903829.

assay.details: Bioanalytical assessment of plasma and brain concentrations after 6 Hz assay
Format: in vivo, mouse
run.conditions: Scn8a^N1768D/+, mouse, in vivo, 10 mg/kg, Study18042, 10 mg/kg, SCN8A mouse 6HZ; read-out: Mean [Brain]
endpoint.label: concentration at 2 h (µM)
Numbers only here, please. The scale is µM.

q: Please look up its concentration at 2 h: COC[C@@H](NC(C)=O)C(=O)NCc1ccccc1 [lacosamide, Lacosamide, reference compound]
a: 3.27

---

assay.details: Bioanalytical assessment of plasma and brain concentrations after mouse DC-MES assay
Assay type: in vivo
run.conditions: mouse, plasma, po, 5 mg/kg, WT mice, 5 mg/kg PO every 12 hr, day 7, 2 h after 13th dose; read-out: Mean [Plasma]
endpoint.label: concentration at 2 h (nM)
Numbers only here, please. The scale is nM.

q: Please look up its concentration at 2 h: Cc1cc(S(=O)(=O)Nc2cscn2)c(F)cc1N(C)[C@H]1CCN(Cc2ccccc2)C1 [NBI-921352]
a: 43
